All figures here come from PubChem BioAssay AID1963868.

Please respond with reported viability, T/C for every item in the list.
test system: KRAS PDC tumor spheroids (HUVEC+MSC), viability; test: Anticancer human tumor 254851-301-R-J1-PDC patient-derived colon carcinoma cell line growth inhibition [KRAS2]; conditions: second compound 0.316 µM; first compound 0.00316 µM; stronger effect = lower value;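 note: spheroids exposed to compounds for seven days before readout; 100% = DMSO vehicle control luminescence of the spheroids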

Cn1ncnc1[C@H]1c2n[nH]c(=O)c3cc(F)cc(c23)N[C@@H]1c1ccc(F)cc1 + CNCc1ccccc1-c1csc(C(C)Nc2nc(C)nc3cc(OC)c(OC)cc23)c1: 98.8%
CN(C)C/C=C/C(=O)Nc1cc2c(Nc3ccc(F)c(Cl)c3)ncnc2cc1O[C@H]1CCOC1 + CNCc1ccccc1-c1csc(C(C)Nc2nc(C)nc3cc(OC)c(OC)cc23)c1: 90.4%
CC(=O)Nc1cccc(-n2c(=O)n(C3CC3)c(=O)c3c(Nc4ccc(I)cc4F)n(C)c(=O)c(C)c32)c1 + C=CC(=O)N1CCN(c2nc(OCC3CCCN3C)nc3c2CCN(c2cccc4cccc(C)c24)C3)CC1CC#N: 84.9%

Please look at the following compound next.
Could you tell me which viability, T/C is on file for CC(=O)Nc1cccc(-n2c(=O)n(C3CC3)c(=O)c3c(Nc4ccc(I)cc4F)n(C)c(=O)c(C)c32)c1 + COc1cc2nc(C)nc(NC(C)c3cc(N)cc(C(F)(F)F)c3)c2cc1OC1CCOC1 ?
62.7%
